The measured values listed here are drawn from BindingDB's records for doi:10.7270/Q2736PBV.

target: UniProt:P10520; test: viability-normalized secreted streptokinase activity reduction – plasminogen activation absorbance, OD405, dose response (AID 1914)
Sequence (P10520 whole entry): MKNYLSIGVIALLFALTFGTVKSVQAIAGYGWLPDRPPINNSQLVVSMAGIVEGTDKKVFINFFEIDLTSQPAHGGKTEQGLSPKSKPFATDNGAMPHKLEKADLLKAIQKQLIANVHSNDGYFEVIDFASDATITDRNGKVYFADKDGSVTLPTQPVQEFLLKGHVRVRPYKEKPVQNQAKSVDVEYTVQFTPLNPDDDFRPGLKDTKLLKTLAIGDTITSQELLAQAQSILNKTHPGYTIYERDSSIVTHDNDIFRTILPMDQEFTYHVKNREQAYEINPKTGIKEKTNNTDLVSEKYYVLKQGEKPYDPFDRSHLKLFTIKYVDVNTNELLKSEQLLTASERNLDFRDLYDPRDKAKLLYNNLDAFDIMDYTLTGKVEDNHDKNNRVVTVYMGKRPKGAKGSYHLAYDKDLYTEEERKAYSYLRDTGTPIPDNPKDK
pEC50: −log10 of the molar value.
Test Readout: pEC50

Data request: Give pEC50 for COc1cccc(N=NCc2cccc(Br)c2O)c1
Data returned: 4.71

Data request: Give pEC50 for Cc1ccccc1CN=Nc1nc2ccccc2[nH]1 [SMR000305031]
Data returned: < 3.82

Data request: Give pEC50 for Oc1ccccc1CN=Nc1nc(O)c(Cc2ccc(F)cc2)s1
Data returned: < 3.82

Data request: Give pEC50 for O=C1C(=NNC(=S)Nc2ccccc2F)c2ccccc2N1Cc1cccc(Cl)c1
Data returned: < 3.82

Data request: Give pEC50 for Clc1ccc(-c2ccc(CN=Nc3cc(N4CCOCC4)nc(N4CCOCC4)n3)o2)cc1 [MLS000527145]
Data returned: < 3.82

Data request: Give pEC50 for CCN1C(=O)C(C=NN=Cc2ccccc2)c2ccc(C3=NNC(=O)CC3)cc21 (stereo not given)
Data returned: < 3.82

Data request: Give pEC50 for CC(NNC(=O)c1ccccc1O)=C1C(=O)c2ccccc2C1=O [MLS000523164]
Data returned: < 3.82

Data request: Give pEC50 for CC(C)c1ccc2c(c1)=C(NNC(=O)c1cccc(S(=O)(=O)N3CCCCC3)c1)C(=O)N=2 [SMR000243307]
Data returned: < 3.82

Data request: Give pEC50 for Oc1nc(Nc2ccc(Cl)cc2)sc1Cc1cc(Cl)ccc1Cl
Data returned: < 3.82

Data request: Give pEC50 for Cc1sc2ncnc(N=NCc3ccccc3O)c2c1C
Data returned: 5.09
